Reference for the values: ChEMBL document CHEMBL5625219

Listed below: IC50 at 24 h values for each entry.
experiment_summary: Cytotoxicity against mouse RAW264.7 cells assessed as inhibition of cell growth incubated for 24 hrs by MTT assay
Assay type: toxicity, cell-based
measured_endpoint: IC50 at 24 h (µM)

[[record]]
mol_smiles = "CC(=O)O[C@H]1C[C@@]2(C)[C@@H](C[C@@H](O)[C@H]3[C@@]4(C)CC[C@@H](O)[C@@H](C)[C@@H]4CC[C@@]32C)/C1=C(\\CCC=C(C)C)C(=O)OCc1cc(-c2ccccc2)no1"
measured_value = 93

[[record]]
mol_smiles = "COc1cc(-c2nnc(COC(=O)/C(CCC=C(C)C)=C3\\[C@@H](OC(C)=O)C[C@@]4(C)[C@H]3C[C@@H](O)[C@H]3[C@@]5(C)CC[C@@H](O)[C@@H](C)[C@@H]5CC[C@@]34C)o2)cc(OC)c1OC"
measured_value = 129

[[record]]
mol_smiles = "CC(=O)O[C@H]1C[C@@]2(C)[C@@H](C[C@@H](O)[C@H]3[C@@]4(C)CC[C@@H](O)[C@@H](C)[C@@H]4CC[C@@]32C)/C1=C(\\CCC=C(C)C)C(=O)OCc1cc(-c2ccc(C)cc2)no1"
measured_value = 75.9

[[record]]
mol_smiles = "CC(=O)O[C@H]1C[C@@]2(C)[C@@H](C[C@@H](O)[C@H]3[C@@]4(C)CC[C@@H](O)[C@@H](C)[C@@H]4CC[C@@]32C)/C1=C(\\CCC=C(C)C)C(=O)OCc1nnc(-c2ccc(Cl)cc2)o1"
measured_value = 44.3

[[record]]
mol_smiles = "CC(=O)O[C@H]1C[C@@]2(C)[C@@H](C[C@@H](O)[C@H]3[C@@]4(C)CC[C@@H](O)[C@@H](C)[C@@H]4CC[C@@]32C)/C1=C(\\CCC=C(C)C)C(=O)OCc1cn(-c2ccc(Br)cc2)nn1"
measured_value = 54.5


---

experiment_summary: Cytotoxicity against mouse RAW264.7 cells assessed as inhibition of cell growth incubated for 24 hrs by MTT assay
Format: toxicity, cell-based
measured_endpoint: IC50 at 24 h (µM)

[[record]]
compound = "CC(=O)O[C@H]1C[C@@]2(C)[C@@H](C[C@@H](O)[C@H]3[C@@]4(C)CC[C@@H](O)[C@@H](C)[C@@H]4CC[C@@]32C)/C1=C(\\CCC=C(C)C)C(=O)OCc1cn(Cc2ccc(F)cc2)nn1"
unit = "µM"
measured_value = 68.7

[[record]]
compound = "CC(=O)O[C@H]1C[C@@]2(C)[C@@H](C[C@@H](O)[C@H]3[C@@]4(C)CC[C@@H](O)[C@@H](C)[C@@H]4CC[C@@]32C)/C1=C(\\CCC=C(C)C)C(=O)O [FUSIDIC ACID]"
unit = "µM"
measured_value = 61.3

[[record]]
compound = "COc1ccc(-n2cc(COC(=O)/C(CCC=C(C)C)=C3\\[C@@H](OC(C)=O)C[C@@]4(C)[C@H]3C[C@@H](O)[C@H]3[C@@]5(C)CC[C@@H](O)[C@@H](C)[C@@H]5CC[C@@]34C)nn2)cc1"
unit = "µM"
measured_value = 43.6

[[record]]
compound = "CC(=O)O[C@H]1C[C@@]2(C)[C@@H](C[C@@H](O)[C@H]3[C@@]4(C)CC[C@@H](O)[C@@H](C)[C@@H]4CC[C@@]32C)/C1=C(\\CCC=C(C)C)C(=O)OCc1cn(-c2ccc(Cl)cc2)nn1"
unit = "µM"
measured_value = 119

[[record]]
compound = "COc1cc(-n2cc(COC(=O)/C(CCC=C(C)C)=C3\\[C@@H](OC(C)=O)C[C@@]4(C)[C@H]3C[C@@H](O)[C@H]3[C@@]5(C)CC[C@@H](O)[C@@H](C)[C@@H]5CC[C@@]34C)nn2)cc(OC)c1OC"
unit = "µM"
measured_value = 120


---

experiment_summary: Cytotoxicity against mouse RAW264.7 cells assessed as inhibition of cell growth incubated for 24 hrs by MTT assay
Type: toxicity, cell-based
measured_endpoint: IC50 at 24 h (µM)

[[record]]
mol_smiles = "CC(=O)O[C@H]1C[C@@]2(C)[C@@H](C[C@@H](O)[C@H]3[C@@]4(C)CC[C@@H](O)[C@@H](C)[C@@H]4CC[C@@]32C)/C1=C(\\CCC=C(C)C)C(=O)OCc1nnc(-c2ccccc2)o1"
measured_endpoint = "IC50 at 24 h"
unit = "µM"
measured_value = 40.1

[[record]]
mol_smiles = "CC(=O)O[C@H]1C[C@@]2(C)[C@@H](C[C@@H](O)[C@H]3[C@@]4(C)CC[C@@H](O)[C@@H](C)[C@@H]4CC[C@@]32C)/C1=C(\\CCC=C(C)C)C(=O)OCc1cn(Cc2ccc([N+](=O)[O-])cc2)nn1"
measured_endpoint = "IC50 at 24 h"
unit = "µM"
measured_value = 56.8

[[record]]
mol_smiles = "CC(=O)O[C@H]1C[C@@]2(C)[C@@H](C[C@@H](O)[C@H]3[C@@]4(C)CC[C@@H](O)[C@@H](C)[C@@H]4CC[C@@]32C)/C1=C(\\CCC=C(C)C)C(=O)OCc1cn(Cc2ccc(Cl)cc2)nn1"
measured_endpoint = "IC50 at 24 h"
unit = "µM"
measured_value = 72.5

[[record]]
mol_smiles = "CC(=O)O[C@H]1C[C@@]2(C)[C@@H](C[C@@H](O)[C@H]3[C@@]4(C)CC[C@@H](O)[C@@H](C)[C@@H]4CC[C@@]32C)/C1=C(\\CCC=C(C)C)C(=O)OCc1cn(-c2ccc(Cl)c(Cl)c2)nn1"
measured_endpoint = "IC50 at 24 h"
unit = "µM"
measured_value = 56.1


---

experiment_summary: Cytotoxicity against mouse RAW264.7 cells assessed as inhibition of cell growth incubated for 24 hrs by MTT assay
Type: toxicity, cell-based
Strictly below 90 µM in IC50 at 24 h: T. Otherwise: F.

[[record]]
mol_smiles = "CC(=O)O[C@H]1C[C@@]2(C)[C@@H](C[C@@H](O)[C@H]3[C@@]4(C)CC[C@@H](O)[C@@H](C)[C@@H]4CC[C@@]32C)/C1=C(\\CCC=C(C)C)C(=O)OCc1nnc(-c2ccc([N+](=O)[O-])cc2)o1"
category = "F"

[[record]]
mol_smiles = "COc1ccc(-c2nnc(COC(=O)/C(CCC=C(C)C)=C3\\[C@@H](OC(C)=O)C[C@@]4(C)[C@H]3C[C@@H](O)[C@H]3[C@@]5(C)CC[C@@H](O)[C@@H](C)[C@@H]5CC[C@@]34C)o2)cc1"
category = "F"

[[record]]
mol_smiles = "COc1cc(Cn2cc(COC(=O)/C(CCC=C(C)C)=C3\\[C@@H](OC(C)=O)C[C@@]4(C)[C@H]3C[C@@H](O)[C@H]3[C@@]5(C)CC[C@@H](O)[C@@H](C)[C@@H]5CC[C@@]34C)nn2)cc(OC)c1OC"
category = "T"

[[record]]
mol_smiles = "COc1ccc(-c2cc(COC(=O)/C(CCC=C(C)C)=C3\\[C@@H](OC(C)=O)C[C@@]4(C)[C@H]3C[C@@H](O)[C@H]3[C@@]5(C)CC[C@@H](O)[C@@H](C)[C@@H]5CC[C@@]34C)on2)cc1OC"
category = "T"

[[record]]
mol_smiles = "COc1cc(-c2cc(COC(=O)/C(CCC=C(C)C)=C3\\[C@@H](OC(C)=O)C[C@@]4(C)[C@H]3C[C@@H](O)[C@H]3[C@@]5(C)CC[C@@H](O)[C@@H](C)[C@@H]5CC[C@@]34C)on2)cc(OC)c1OC"
category = "T"

[[record]]
mol_smiles = "CC(=O)O[C@H]1C[C@@]2(C)[C@@H](C[C@@H](O)[C@H]3[C@@]4(C)CC[C@@H](O)[C@@H](C)[C@@H]4CC[C@@]32C)/C1=C(\\CCC=C(C)C)C(=O)OCc1cc(-c2ccc(F)cc2)no1"
category = "T"

[[record]]
mol_smiles = "CC(=O)O[C@H]1C[C@@]2(C)[C@@H](C[C@@H](O)[C@H]3[C@@]4(C)CC[C@@H](O)[C@@H](C)[C@@H]4CC[C@@]32C)/C1=C(\\CCC=C(C)C)C(=O)OCc1cn(-c2ccc(F)cc2)nn1"
category = "T"

[[record]]
mol_smiles = "COc1ccc(-c2cc(COC(=O)/C(CCC=C(C)C)=C3\\[C@@H](OC(C)=O)C[C@@]4(C)[C@H]3C[C@@H](O)[C@H]3[C@@]5(C)CC[C@@H](O)[C@@H](C)[C@@H]5CC[C@@]34C)on2)cc1"
category = "T"

